# Tested on: NCI-H2347
# experimental.protocol: relative viability (nuclei count vs DMSO), 5 days (fraction); higher = more cells survive
# condition.context: first compound 0.253 µM
Listed here: items and their measured relative viability.
Give the value as a plain number.

Solved cases below.
>>> observed("O=c1cc(-c2cccc3c2Sc2ccccc2S3)oc(N2CCOCC2)c1 + Nc1nc2[nH]cc(CCc3ccc(C(=O)N[C@@H](CCC(=O)O)C(=O)O)cc3)c2c(=O)[nH]1 [Pemetrexed] (partner 0.2 µM)")
0.458
>>> observed("COc1nc(C)cnc1NS(=O)(=O)c1cccnc1-c1ccc(-c2nnco2)cc1 [Zibotentan] + Nc1nc2[nH]cc(CCc3ccc(C(=O)N[C@@H](CCC(=O)O)C(=O)O)cc3)c2c(=O)[nH]1 [Pemetrexed] (partner 0.2 µM)")
0.463

# context switch: different molecule, same relative viability
QUERY: relative viability for COc1nc(C)cnc1NS(=O)(=O)c1cccnc1-c1ccc(-c2nnco2)cc1 [Zibotentan] + CC1(C)CCC(c2ccc(Cl)cc2)=C(CN2CCN(c3ccc(C(=O)NS(=O)(=O)c4ccc(N[C@H](CCN5CCOCC5)CSc5ccccc5)c(S(=O)(=O)C(F)(F)F)c4)cc3)CC2)C1 [Navitoclax] (partner 0.5 µM) ?
RESULT: 0.776

Every entry's value here was drawn from the supplement of paper PMC10307832.
